test system: RPMI-8226 leukemia; assay: NCI tumour cell line growth inhibition, 48 h
Tag: YES if measured TGI is not below 5 µM, NO if it is.

Q: Could you verify whether the entry "COc1cc2c(/C=C3/C(=O)N(C)c4ccccc43)c(Cl)[nH]c2cc1C" shows TGI of no less than 5 µM?
Ans: YES

Q: Could you verify whether the entry CC(=O)[C@@H]1[C@@H](OC(=O)CCC(C)COC2OC(CO)C(O)C(O)C2O)C[C@H]2[C@@H]3CC=C4C[C@@H](OC5OC(CO)C(OC6OC(C)C(O)C(O)C6O)C(O)C5OC5OC(C)C(O)C(O)C5O)CC[C@]4(C)[C@H]3CC[C@]12C (stereo not given in full) shows TGI of no less than 5 µM?
Ans: YES

Q: Could you verify whether the entry "CC1=NCCN=C(C)C1N=Nc1ccc2nc(C)[nH]c2c1" shows TGI of no less than 5 µM?
Ans: YES
